Test system: serum cholesterol and serum triglycerides
Test: Hypolipidaemic activity in rats (compound in diet, last 7 of 10 days)
Assay type: in vivo, Male Wistar rats
Conditions: Rattus norvegicus, po, 168 h, 0.2 % w/w dose in diet, 7 days, read-out: % change in serum cholesterol compared with control
Each entry below carries its reported change in vivo at 0.2 % strength.
Please reply with the bare figure in % and do not write the unit itself.

1. CCCCCCCCC1CNc2ccc(C(=O)O)cc21 (racemic)	11
2. CCCCCCCc1cc2cc(C(=O)O)ccc2[nH]1	-10

Please look up its change in vivo at 0.2 % strength: CCCCCCCC1Cc2ccc(C(=O)O)cc2N1 (racemic) -22

###

Each entry below carries its recorded inhibition at 5 µg/mL.
Test system: Smooth muscle cells from explants of pig thoracic aorta
Experiment: Aortic smooth muscle cell proliferation inhibiting activity
Type: cell-based
Details: Sus scrofa, 168 h, 5 μg/ml medium; six or seven day incubation; each value mean of four dishes
Quick note: number first, unit second.

Look at this molecule and give its reported inhibition at 5 µg/mL. CCCCCCCc1cc2ccc(C(=O)OCC)cc2[nH]1 [Compound AJJ, ethyl 2-(n-heptyl)indole-6-carboxylate] 45%

What value of inhibition at 5 µg/mL has been reported for the following molecule? CCCCCCCCCCCCCCCc1cc2cc(C(=O)O)ccc2[nH]1 [Compound G, 2-(n-pentadecyl)indole-5-carboxylic acid] 51%

Using the record for CCCCCCCCCCCCCCCCCCc1cc2cc(C(=O)O)ccc2[nH]1 [Compound T, 2-(n-octadecyl)indole-5-carboxylic acid] , report its inhibition at 5 µg/mL. 30%

Can you look up the measured inhibition at 5 µg/mL of CCCCCCCCCCCCCCCCc1cc2ccc(C(=O)O)cc2[nH]1 [Compound TT, 2-(n-hexadecyl)indole-6-carboxylic acid] for me? 61%

Param item = CCCCCCCCCCCCCCc1cc2cc(C(=O)O)ccc2[nH]1 [Compound NN, 2-(n-tetradecyl)indole-5-carboxylic acid] ; retrieve measured inhibition at 5 µg/mL. 76%

Fill blank: measured inhibition at 5 µg/mL of the molecule CCCCCCCc1cc2cc(C(=O)OC)ccc2[nH]1 [Compound ASS, methyl 2-(n-heptyl)indole-5-carboxylate] is ____. 36%

###

Tested on: serum cholesterol and serum triglycerides
Test: Hypolipidaemic activity in rats (compound in diet, last 7 of 10 days)
Type: in vivo, Male Wistar rats
Conditions: Rattus norvegicus, po, 168 h, 0.2 % w/w dose in diet, 7 days, read-out: % change in serum triglycerides compared with control
value_type: change in vivo at 0.2 % strength (%)
// note: answer is a bare numeric in %

Please review the following examples before continuing.
1) CCCCCCCCCCCCCCCCC1CNc2ccc(C(=O)OC)cc21 (racemic)	-20
2) CCCCCCCC1Cc2ccc(C(=O)O)cc2N1 (racemic)	-37
3) CCCCCCCCCCCCCCCCCc1cc2ccc(C(=O)O)cc2[nH]1	-4
4) CCCCCCCCCCC1CNc2cc(C(=O)O)ccc21 (racemic)	-50
5) CCCCCCCCCCCC1Cc2ccc(C(=O)O)cc2N1C (racemic)	-30
6) CCCCCCCCCCCCCCCCC1CNc2cc(C(=O)O)ccc21 (racemic)	-41
7) CCCCCCCCCCCCCCCCc1c[nH]c2ccc(C(=O)O)cc12	-10
8) CCCCCCCCc1c[nH]c2ccc(C(=O)O)cc12	15

What change in vivo at 0.2 % strength value was documented for this compound, CCCCCCCCCCCCCCCC1Cc2cc(C(=O)O)ccc2N1 (racemic) ? -55

Reported change in vivo at 0.2 % strength, compound CCCCCCCCCCCCCCc1cc2cc(C(=O)O)ccc2[nH]1 : ____ -73
